Molecular target: T1, AAV8
T1 construct: also called adeno-associated virus serotype 8
Assay: SPR, AAV on CM5 chip;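 also: surface plasmon resonance with AAV amine-coupled to the chip as ligand, nanobodies injected as analyte over a concentration series, rate constants and affinity fitted from binding curves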
reported_endpoint: Kd

# binder, result_value
records = [
    ("A4-014 (VHH) VHH: VQLQESGGGLVQPGGSLRLSCAASGSRFSINSMGWYRQAPGKQRELVATVTRGGNTNYAGSVKGRFTISRDNAKNTVYLQMNSLRPEDTAVYYCHVDEVRESSWTTSNLWGQGTQVTVSS", "384 nM"),
]

Looking up A4-047 (VHH) VHH: VQLQESGGGLVQPGGSLRLSCAASGSRFSINTMGWYRQAPGKQRELVATVTRGGSTNYAGSVKGRFTISRDNAKNTVYLQMNSLRPEDTAVYYCHVDEVRQSSWTTSNLWGQGTQVTVSS , I found its Kd recorded as 0.104 nM
